system: Saccharomyces cerevisiae; experiment: protein stability index of tFT-peptide fusion (C-terminal peptide) (PSI (0-1 scale)); higher = more stable (slower turnover); settings: genetic background: wild type; temperature: 30 C
Cut-off 0.7 on protein stability index, inclusive. At or above means 1; below means 0.

Examples from the recorded data:
> print(dat)
   chain.sequence  qualitative.label
1    PSRPPGHPAPKP                  1
2    GRRFCYQASAGQ                  0
3    VDLARWPVPEFW                  1

Incoming: Test whether the sequence LSFHSYLSPFYL records protein stability index of 0.7 or higher.
Outgoing: 0

Incoming: Test whether the sequence DFPLISAHNTVC records protein stability index of 0.7 or higher.
Outgoing: 0

Incoming: Test whether the sequence MALAVRVVRCGA records protein stability index of 0.7 or higher.
Outgoing: 0

Incoming: Test whether the sequence PSPSLPGRSASP records protein stability index of 0.7 or higher.
Outgoing: 1

* * *

system: Saccharomyces cerevisiae; assay: protein stability index of tFT-peptide fusion (C-terminal peptide) (PSI (0-1 scale)); higher = more stable (slower turnover); details: genetic background: wild type; temperature: 30 C
RECORDED ENDPOINT: protein stability index
Just the number.

Here are 5 sequences together with their reported answers.
> print(dat)
   chain.sequence  measured.value
1    LVAFKGNSMGRE           0.681
2    IRVADLNSSSFC           0.888
3    SGPYPVGKQRSE           0.649
4    PPTPYPRFIFSF           0.459
5    SPQRAHLHHHPT           0.654

# next sequence below
Record KCLCGVHVRLRA . Reported protein stability index: 0.59

* * *

test system: Saccharomyces cerevisiae; assay: protein stability index of tFT-peptide fusion in wild type (PSI (0-1 scale)); higher = more stable (slower turnover); settings: genetic background: wild type
Recorded protein stability index for the following sequences

Here are 5 sequences together with their reported answers.
> print(dat)
   chain.sequence        recorded.endpoint  measured.value
1    FSMRWTFRYWVT  protein stability index           0.225
2    LYVYLSCVACIN  protein stability index          0.0152
3    FSMRWTFRYWVG  protein stability index           0.422
4    VRGEVGGWRLVG  protein stability index           0.119
5    RSLRVLLPLWFR  protein stability index           0.459

Record AITLPMCMLLLR . Reported protein stability index: 0.133

Record KKFKKGQKQKIN . Reported protein stability index: 0.129

Record PSLAASFWRVHG . Reported protein stability index: 0.193

Record PDKRNGLIKLLN . Reported protein stability index: 0.222

Record CLVSLRILLFFR . Reported protein stability index: 0.152

* * *

tested on: Saccharomyces cerevisiae; test: protein stability index of tFT-peptide fusion (C-terminal peptide) (PSI (0-1 scale)); higher = more stable (slower turnover); settings: genetic background: cdc53-1; temperature: 37 C
Recorded protein stability index for the following sequences
Just the number.

Here are 6 sequences together with their reported answers.
> print(dat)
   chain.sequence        recorded.endpoint  measured.value
1    LFGFILLGVSCC  protein stability index          0.0719
2    VLGFRPLVFLCF  protein stability index           0.252
3    CLHFLTWVRICS  protein stability index            0.47
4    LRLCMVFAWFLT  protein stability index           0.508
5    PLLLFFFPRLLF  protein stability index            0.62
6    KNVFLIRGRKNC  protein stability index           0.689

Record KIILMCYTLITL . Reported protein stability index: 0.347

Record AYVAPRRALMCS . Reported protein stability index: 0.495

Record DVVRWQRVRNYV . Reported protein stability index: 0.722

Record TLRINSPFYFLS . Reported protein stability index: 0.703

* * *

tested on: Saccharomyces cerevisiae; test: protein stability index of tFT-peptide fusion (C-terminal peptide) (PSI (0-1 scale)); higher = more stable (slower turnover); conditions: genetic background: wild type; temperature: 30 C
Recorded protein stability index for the following sequences
Just the number.

Here are 4 sequences together with their reported answers.
> print(dat)
   chain.sequence                    system  measured.value
1    GVQFSVKWVKLG  Saccharomyces cerevisiae           0.109
2    APLSPLLPPFLC  Saccharomyces cerevisiae           0.369
3    RIAIRSAVICAS  Saccharomyces cerevisiae           0.138
4    RVRRETRLRQIA  Saccharomyces cerevisiae           0.147

Record RILKLPGHVNDV . Reported protein stability index: 0.65

Record MSRALSVLVVVA . Reported protein stability index: 0.22

* * *

tested on: Saccharomyces cerevisiae; experiment: protein stability index of tFT-peptide fusion (C-terminal peptide) (PSI (0-1 scale)); higher = more stable (slower turnover); details: genetic background: das1 deletion; temperature: 37 C
Cut-off 0.5 on protein stability index, inclusive. At or above means 1.0; below means 0.0.

Examples from the recorded data:
> print(dat)
   chain.sequence                    system  qualitative.label
1    LLVRYYLFYVLV  Saccharomyces cerevisiae                0.0
2    VCVWVDILAFCS  Saccharomyces cerevisiae                0.0
3    TEHIIAFKASVN  Saccharomyces cerevisiae                1.0
4    CGFVCGLCLCRV  Saccharomyces cerevisiae                1.0
5    LRVVVGLCMCVL  Saccharomyces cerevisiae                1.0

Incoming: Test whether the sequence VLRLLARRHAMV records protein stability index of 0.5 or higher.
Outgoing: 1.0

Incoming: Test whether the sequence CFVLVVCIPVMV records protein stability index of 0.5 or higher.
Outgoing: 0.0

Incoming: Test whether the sequence VIFFEFFLSFGE records protein stability index of 0.5 or higher.
Outgoing: 0.0

Incoming: Test whether the sequence FCFVRGLLFLFF records protein stability index of 0.5 or higher.
Outgoing: 1.0

Incoming: Test whether the sequence GLLLLGIRLKWG records protein stability index of 0.5 or higher.
Outgoing: 0.0

Incoming: Test whether the sequence HWVRLSSLAFVS records protein stability index of 0.5 or higher.
Outgoing: 0.0

* * *

Recorded protein stability index for the following sequences
system: Saccharomyces cerevisiae; experiment: protein stability index of tFT-peptide fusion (C-terminal peptide) (PSI (0-1 scale)); higher = more stable (slower turnover); conditions: genetic background: wild type; temperature: 30 C
Just the number.

Here are 3 sequences together with their reported answers.
> print(dat)
   chain.sequence        recorded.endpoint  measured.value
1    DSPLAGALTEVD  protein stability index           0.715
2    CQRHGTKIHRRR  protein stability index           0.736
3    LSNATPAHAGKP  protein stability index           0.706

protein stability index of GGGGGRGQGWYR , assay on Saccharomyces cerevisiae, is 0.651

protein stability index of VIDQRIDIAYFS , assay on Saccharomyces cerevisiae, is 0.746

protein stability index of HPPLRPPLGSRF , assay on Saccharomyces cerevisiae, is 0.868

protein stability index of TTATLSFAICAV , assay on Saccharomyces cerevisiae, is 0.428

protein stability index of GGTCWEGEVVDV , assay on Saccharomyces cerevisiae, is 0.641

* * *

test system: Saccharomyces cerevisiae; assay: protein stability index of tFT-peptide fusion (C-terminal peptide) (PSI (0-1 scale)); higher = more stable (slower turnover); conditions: genetic background: wild type; temperature: 30 C
RECORDED ENDPOINT: protein stability index
Just the number.

Here are 10 sequences together with their reported answers.
> print(dat)
    chain.sequence                    system        recorded.endpoint  measured.value
 1    CGWFVSVGWRLG  Saccharomyces cerevisiae  protein stability index           0.305
 2    GGRREWCRGGGV  Saccharomyces cerevisiae  protein stability index           0.546
 3    VLGFRPLVFLCF  Saccharomyces cerevisiae  protein stability index           0.304
 4    GDLEFCCLIIVL  Saccharomyces cerevisiae  protein stability index           0.306
 5    PPTPYPRFIFSF  Saccharomyces cerevisiae  protein stability index           0.372
 6    LFGFILLGVSCC  Saccharomyces cerevisiae  protein stability index           0.168
 7    PSIALVRLDVIC  Saccharomyces cerevisiae  protein stability index           0.327
 8    PLLPTPLTAPPP  Saccharomyces cerevisiae  protein stability index           0.671
 9    NYCVFLSYLLFC  Saccharomyces cerevisiae  protein stability index           0.215
10    LPSLPPPPPPPP  Saccharomyces cerevisiae  protein stability index           0.647

Record YVRHDKLILSFC . Reported protein stability index: 0.414

Record SFFCFFLSFFYL . Reported protein stability index: 0.445

Record LVCLTPPPSPFS . Reported protein stability index: 0.332

Cited source for all entries: the supplement of paper PMC10724198
